Hey, just so you know, these numbers are from ChEMBL document CHEMBL1157910.

- Test system: B16
- methodDescription: Inhibition of melanogenesis in mouse B16 cells at 10 uM
- Type: functional
Tag: true (1) if measured inhibition at 10 µM is not below 80%, false (0) if it is.

> print(dat)
                                    compound  classassignment
 1                         NC(=S)Nc1ccccc1CO        false (0)
 2                        Cc1ccc(NC(N)=S)cc1         true (1)
 3                  CCc1ccc(/C=N/NC(N)=S)cc1         true (1)
 4                   CC(C)(C)c1ccccc1NC(N)=S        false (0)
 5                   Cc1ccc(/C=N/NC(N)=S)cc1        false (0)
 6                       CCc1ccc(NC(N)=S)cc1         true (1)
 7  NC(=S)N/N=C/c1ccccc1 [PHENYLTHIOSEMICARBAZONE]        false (0)
 8                         COc1ccccc1NC(N)=S        false (0)
 9          NC(=S)Nc1ccccc1 [PHENYLTHIOUREA]         true (1)
10                       NC(=S)NCCCCc1ccccc1        false (0)
11                         CCc1ccccc1NC(N)=S        false (0)
12                         NC(=S)NCCc1ccccc1        false (0)
13                 CC(C)(C)c1ccc(NC(N)=S)cc1         true (1)
14                       NC(=S)Nc1ccc(Cl)cc1         true (1)
15                          NC(=S)NCc1ccccc1        false (0)
16                        NC(=S)Nc1ccc(O)cc1        false (0)
17                        NC(=S)NCCCc1ccccc1        false (0)
18                          Cc1ccccc1NC(N)=S        false (0)

---

- Test system: B16
- methodDescription: Inhibition of melanogenesis in mouse B16 cells
- Format: functional, cell-based
IC50 strictly less than 6 µM = label 1. Otherwise label 0.

> print(dat)
                  querysmiles  classassignment
 1        COc1ccc(NC(N)=S)cc1          label 1
 2         NC(=S)Nc1ccc(O)cc1          label 0
 3  CC(C)(C)c1ccc(NC(N)=S)cc1          label 1
 4          NC(=S)NCCc1ccccc1          label 0
 5          CCc1ccccc1NC(N)=S          label 0
 6    CC(C)(C)c1ccccc1NC(N)=S          label 0
 7        NC(=S)NCCCCc1ccccc1          label 0
 8    Cc1ccc(/C=N/NC(N)=S)cc1          label 0
 9        CCc1ccc(NC(N)=S)cc1          label 1
10         Cc1cccc(NC(N)=S)c1          label 1
11           Cc1ccccc1NC(N)=S          label 0
12         NC(=S)NCCCc1ccccc1          label 0
13            NC(=S)Nc1ccccc1          label 1
14           NC(=S)NCc1ccccc1          label 0
15          COc1ccccc1NC(N)=S          label 0
16         Cc1ccc(NC(N)=S)cc1          label 1
17        NC(=S)Nc1ccc(Cl)cc1          label 1
18       NC(=S)N/N=C/c1ccccc1          label 0
19   CCc1ccc(/C=N/NC(N)=S)cc1          label 1
20          NC(=S)Nc1ccccc1CO          label 0
